test: Quantitative High-Throughput drug screen in 47 multiple myeloma cell lines against the NCATS MIPE library collection: ARD_JJKsccE7 cell viability assay (AID 1918929); conditions: ARD myeloma cell line viability, CellTiter-Glo, 48 h; series mostly up to 45.8 µM
Records with an inconclusive call do not appear. Activity calls are given as the source filed them. The call rests on the fitted dose curve; in most records, active means well fitted cell-killing curve with a large enough effect; inconclusive means small, poorly fitted or top-dose-only effect, or effect the other way; inactive means no such curve, though single readings can be large or run the other way.
Please state which outcome applies, choosing from T (active), F (inactive)

Query: For `O=c1cc(-c2ccccc2)oc2cc(O)cc(O)c12` , which call appears in the assay record?
Result: T

Query: For `CC(C)n1cnc2c(NCCCCCCNC(=O)OC(C)(C)C)nc(NCCO)nc21` , which call appears in the assay record?
Result: T

Query: For `C[C@H](NC(=O)c1sccc1OCc1ccc(Cl)cc1)c1ccccc1` , which call appears in the assay record?
Result: F

Query: For `CN(C)c1cc(NC(=O)CNC(C)(C)C)c(O)c2c1C[C@@H]1C[C@H]3[C@H](N(C)C)C(=O)C(C(N)=O)=C(O)[C@@]3(O)C(=O)C1=C2O` , which call appears in the assay record?
Result: F

Query: For `C[C@H](NC(=O)C(=O)Nc1ccccc1C(C)(C)C)C(=O)N[C@@H](CC(=O)O)C(=O)COc1c(F)c(F)cc(F)c1F` , which call appears in the assay record?
Result: T

Query: For Clc1ccc(CCC(Cn2ccnc2)Sc2c(Cl)cccc2Cl)cc1 (stereo not drawn) , which call appears in the assay record?
Result: T

Query: For `O=C1C(Cl)=C(NCCN2CCOCC2)C(=O)c2ncccc21` , which call appears in the assay record?
Result: T

Query: For `CC(=O)N(C)C1(c2ccccc2)CCN(CCC[C@]2(c3ccc(Cl)c(Cl)c3)CCCN(C(=O)c3ccccc3)C2)CC1` , which call appears in the assay record?
Result: T

Query: For `Cc1cc(OCCCc2c(C(=O)O)n(Cc3cccnc3)c3c(-c4c(COc5ccc(N6CCN([S+](C)(=O)[O-])CC6)cc5)nn(C)c4C)cccc23)cc(C)c1Cl` , which call appears in the assay record?
Result: F

Query: For `Nc1ncnc2ccccc12` , which call appears in the assay record?
Result: F

Query: For `CC(=NNC(=S)N1CCC1)c1ccccn1` , which call appears in the assay record?
Result: T

Query: For `Cc1c(O)cccc1C(=O)N[C@@H](CSc1ccccc1)[C@H](O)CN1C[C@H]2CCCC[C@@H]2C[C@@H]1C(=O)NC(C)(C)C` , which call appears in the assay record?
Result: T

Query: For `CN(C)CCC=C1c2ccccc2COc2ccc(CC(=O)O)cc21` , which call appears in the assay record?
Result: F

Query: For `Nc1ncnc2c1ncn2[C@@H]1O[C@@H](CO)[C@H](O)[C@H]1O` , which call appears in the assay record?
Result: F

Query: For `CC[C@H]1OC(=O)[C@H](C)C(=O)[C@H](C)[C@@H](O[C@H]2O[C@H](C)C[C@H](N(C)C)[C@@H]2O)[C@](C)(OC)C[C@@H](C)C(=O)[C@H](C)[C@H]2N(CCCCn3cnc(-c4cccnc4)c3)C(=O)O[C@]12C` , which call appears in the assay record?
Result: F

Query: For `CC(C)(C)COc1ccc(-n2cc(C(=O)O)cn2)cc1C#N` , which call appears in the assay record?
Result: F

Query: For `CC(C)OC(=O)C(C)(C)Oc1ccc(C(=O)c2ccc(Cl)cc2)cc1` , which call appears in the assay record?
Result: F

Query: For `CCC(CC)[C@H](NC(C)=O)[C@@H]1[C@H](O)[C@@H](C(=O)O)C[C@@H]1N=C(N)N` , which call appears in the assay record?
Result: F

----------
assay: qHTS of pediatric cancer cell lines to identify multiple opportunities for drug repurposing: Primary screen for U-2 OS cells (AID 1347096); settings: U-2 OS viability, CellTiter-Glo luminescence, 48 h; series mostly up to 46 µM; further: nearly all actives have a fitted effect of over 50% in size
Results filed as inconclusive are left out. Activity calls are given as the source filed them. The call rests on the fitted dose curve; in most records, active means well fitted cell-killing curve with a large enough effect; inconclusive means small, poorly fitted or top-dose-only effect; inactive means flat fitted curve, though single readings scatter.
Please state which outcome applies, choosing from active, inactive

Query: For `CC(C)n1nc(-c2ccc3oc(N)nc3c2)c2c(N)ncnc21` , which call appears in the assay record?
Result: active

Query: For `O=C(NC1CCOCC1)c1ccc(-c2cc(-c3cn[nH]c3-c3ccccn3)ccn2)cc1` , which call appears in the assay record?
Result: inactive

Query: For `c1ccc2c(-c3cnn4cc(-c5ccc(N6CCNCC6)cc5)cnc34)ccnc2c1` , which call appears in the assay record?
Result: inactive

Query: For `N#CC1(c2ccc(NC(=O)c3cccnc3NCc3ccncc3)cc2)CCCC1` , which call appears in the assay record?
Result: inactive

Query: For CCOC1OC(=O)C[C@H]1NC(=O)[C@@H]1CCCN1C(=O)[C@@H](NC(=O)c1ccc(N)c(Cl)c1)C(C)(C)C (some centres undefined) , which call appears in the assay record?
Result: inactive

Query: For `NC(=O)c1cnc(-c2ccc(C3(N)CCC3)cc2)c(-c2ccccc2)c1` , which call appears in the assay record?
Result: inactive

Query: For CS(=O)c1ccc(-c2nc(-c3ccc(F)cc3)c(-c3ccncc3)[nH]2)cc1 (centres undefined) , which call appears in the assay record?
Result: inactive

Query: For CCOC(=O)C1=C(N)Oc2ccc(Br)cc2C1C(C#N)C(=O)OCC (centres undefined) , which call appears in the assay record?
Result: inactive

Query: For Cc1nnc(C(C)C)n1C1C[C@H]2CC[C@@H](C1)N2CC[C@H](NC(=O)C1CCC(F)(F)CC1)c1ccccc1 (some centres undefined) , which call appears in the assay record?
Result: inactive

----------
test: qHTS of pediatric cancer cell lines to identify multiple opportunities for drug repurposing: Primary screen for BT-37 cells (AID 1347094); details: BT-37 viability, CellTiter-Glo luminescence, 48 h; series mostly up to 57.3 µM
Inconclusive results are not listed. The source made the active and inactive calls. The call rests on the fitted dose curve; in most records, active means well fitted cell-killing curve with a large enough effect; inconclusive means small, poorly fitted or top-dose-only effect; inactive means flat fitted curve, though single readings scatter.
Please state which outcome applies, choosing from active, inactive

Query: For `CC1(C)CCC(CN2CCN(c3ccc(C(=O)NS(=O)(=O)c4ccc(NCC5CCOCC5)c([N+](=O)[O-])c4)c(Oc4cnc5[nH]ccc5c4)c3)CC2)=C(c2ccc(Cl)cc2)C1` , which call appears in the assay record?
Result: active

Query: For `CC(C)(C)NC(=O)Nc1cccc(Nc2ncc(F)c(NC(C)(C)CO)n2)c1` , which call appears in the assay record?
Result: inactive

Query: For C=C1C(=O)[C@@]23C(CC[C@@H]1[C@H]2O)[C@@]12CO[C@]3(O)[C@@H](O)[C@@H]1C(C)(C)CC[C@@H]2O (stereo partly specified) , which call appears in the assay record?
Result: active

Query: For `Nc1nc(F)nc2c1ncn2[C@@H]1O[C@H](COP(=O)(O)O)[C@@H](O)[C@H]1O` , which call appears in the assay record?
Result: active

Query: For `NC(=O)c1cccc(-c2cc(Nc3ccc(OC(F)(F)F)cc3)ncn2)c1` , which call appears in the assay record?
Result: inactive

Query: For `C[C@H](NC(=O)C(=O)Nc1ccccc1C(C)(C)C)C(=O)N[C@@H](CC(=O)O)C(=O)COc1c(F)c(F)cc(F)c1F` , which call appears in the assay record?
Result: inactive

Query: For Cc1cccc(C)c1OCC(C)N (stereo unspecified) , which call appears in the assay record?
Result: inactive

Query: For `Cn1cc(C=C2C(=O)Nc3cccnc32)c2ccccc21` , which call appears in the assay record?
Result: inactive

Query: For CS(=O)(=O)N(Cc1ccco1)CC(O)Cn1c2ccccc2c2ccccc21 (stereo unspecified) , which call appears in the assay record?
Result: inactive

Query: For `O=C(O)CCc1nc(-c2ccccc2)c(-c2ccccc2)o1` , which call appears in the assay record?
Result: inactive

Query: For COc1ccc2c3c1OC1C[C@@H](O)C=C[C@@]31CCN(C)C2 (stereo partly specified) , which call appears in the assay record?
Result: inactive

Query: For `COc1cccc([C@@H](C)NCCCc2ccccc2Cl)c1` , which call appears in the assay record?
Result: inactive

Query: For `CO[C@H]1C[C@@H]2CC[C@@H](C)[C@@](O)(O2)C(=O)C(=O)N2CCCC[C@@H]2C(=O)O[C@H]([C@H](C)C[C@@H]2CC[C@H](OCCO)[C@H](OC)C2)CC(=O)[C@H](C)C=C(C)[C@@H](O)[C@@H](OC)C(=O)[C@H](C)C[C@H](C)C=CC=CC=C1C` , which call appears in the assay record?
Result: active

Query: For `CC1(C)O[C@H]2C[C@@H]3[C@H]4CCC5=CC(=O)C=C[C@]5(C)[C@@]4(F)[C@@H](O)C[C@]3(C)[C@]2(C(=O)CO)O1` , which call appears in the assay record?
Result: active

Query: For `CCN(CC)CCNC(=O)c1ccc(N)cc1` , which call appears in the assay record?
Result: inactive

Query: For `NC(N)=Nc1nc(CSCC/C(N)=N/S(N)(=O)=O)cs1` , which call appears in the assay record?
Result: inactive

Query: For O=C(NOCC(O)CO)c1cc(Br)c(F)c(F)c1Nc1ccc(I)cc1F (stereo unspecified) , which call appears in the assay record?
Result: inactive

Query: For `CC(C)(C)OC(=O)N[C@H]1CCCCCC=C[C@@H]2C[C@@]2(C(=O)NS(=O)(=O)C2CC2)NC(=O)[C@@H]2C[C@@H](OC(=O)N3Cc4cccc(F)c4C3)CN2C1=O` , which call appears in the assay record?
Result: inactive

Query: For COc1ccc(C2Sc3ccccc3N(CCN(C)C)C(=O)C2OC(C)=O)cc1 (stereo unspecified) , which call appears in the assay record?
Result: inactive

Query: For Cc1ccccc1C(C(=O)NC1CCCCC1)N(C(=O)Cn1ccnc1C)c1cccc(F)c1 (stereo unspecified) , which call appears in the assay record?
Result: inactive

Query: For `CN1C[C@H]2c3ccccc3Oc3ccc(Cl)cc3[C@@H]2C1` , which call appears in the assay record?
Result: inactive

Query: For `O=c1c(-c2ccc(O)cc2)coc2cc(O[C@@H]3O[C@H](CO)[C@H](O)[C@H](O)[C@H]3O)ccc12` , which call appears in the assay record?
Result: inactive

Query: For `O=C(O)c1cc(O)c2c(c1)C(=O)c1cccc(O)c1C2=O` , which call appears in the assay record?
Result: inactive

Query: For `O=C(OCC#CCSc1nnc(-c2cccc3ccccc23)o1)c1cc2ccccc2s1` , which call appears in the assay record?
Result: inactive

Query: For `Oc1ccc(C2=Cc3ccc(O)cc3OC2)cc1` , which call appears in the assay record?
Result: active

Query: For `COc1ccc2c(Oc3ccc(NC(=O)c4c(C)n(CC(C)(C)O)n(-c5ccccc5)c4=O)cc3F)ccnc2c1` , which call appears in the assay record?
Result: inactive

Query: For `O=C1C[C@@H](c2ccc(O)cc2)Oc2cc(O)cc(O)c21` , which call appears in the assay record?
Result: inactive

Query: For `O=C(NCc1ccccc1)c1csc(Nc2ccncn2)n1` , which call appears in the assay record?
Result: active

Query: For CS(=O)c1ccc(-c2nc(-c3ccc(F)cc3)c(-c3ccncc3)[nH]2)cc1 (stereo unspecified) , which call appears in the assay record?
Result: active

Query: For `CC[C@@]1(O)C[C@H](O[C@H]2C[C@H](N(C)C)[C@H](O[C@H]3C[C@H](O)[C@H](O[C@H]4CCC(=O)[C@H](C)O4)[C@H](C)O3)[C@H](C)O2)c2c(cc3c(c2O)C(=O)c2c(O)cccc2C3=O)[C@@H]1C(=O)OC` , which call appears in the assay record?
Result: active

Query: For `CC=CC(=O)N(CC)c1ccccc1C` , which call appears in the assay record?
Result: active

Query: For `O=C1C(Cl)=C(NCCN2CCOCC2)C(=O)c2ncccc21` , which call appears in the assay record?
Result: active

Query: For `O=C(Nc1c(Cl)cncc1Cl)c1ccc(OC(F)F)c(OCC2CC2)c1` , which call appears in the assay record?
Result: inactive

Query: For `COc1cc(N2CCC(N3CCN(C)CC3)CC2)ccc1Nc1ncc(Cl)c(Nc2ccccc2S(=O)(=O)C(C)C)n1` , which call appears in the assay record?
Result: inactive

Query: For `C[C@@H](O)[C@H]1C(=O)N2C(C(=O)O)=C(S[C@@H]3CN[C@H](C(=O)N(C)C)C3)[C@H](C)[C@H]12` , which call appears in the assay record?
Result: inactive

Query: For `CCCNC(=O)NS(=O)(=O)c1ccc(Cl)cc1` , which call appears in the assay record?
Result: inactive
